Would you mind telling me the reported EC50 of each entry?
- Assayed Target: UniProtKB Q8TDV5
- Procedure Summary: Agonist activity at human GPR119 expressed in CHO-K1 cells preincubated for 5 hrs followed by substrate addition measured after 2 hrs by fluorescence based assay
Field: numeric (nM). Do not append units.

// fetch EC50 given entry "CC(C)c1noc(C2CCN(c3ncnc4c(-c5ccc(S(C)(=O)=O)cc5)csc34)CC2)n1"
11.7

// fetch EC50 given entry "CC(C)c1noc(N2CCC(Oc3ncnc4c(-c5ccc(S(C)(=O)=O)cc5F)csc34)CC2)n1"
6.3

// fetch EC50 given entry "CCc1cnc(N2CCC(N(C)c3ncnc4c(-c5ccc(S(C)(=O)=O)cc5)csc34)CC2)nc1"
7.4

// fetch EC50 given entry "CS(=O)(=O)c1ccc(-c2csc3c(N4CCC(c5nc(C6CCCC6)no5)CC4)ncnc23)c(F)c1"
1.9

----------
- Assayed Target: Glucose-dependent insulinotropic receptor (Homo sapiens)
- Sequence (Q8TDV5 whole entry): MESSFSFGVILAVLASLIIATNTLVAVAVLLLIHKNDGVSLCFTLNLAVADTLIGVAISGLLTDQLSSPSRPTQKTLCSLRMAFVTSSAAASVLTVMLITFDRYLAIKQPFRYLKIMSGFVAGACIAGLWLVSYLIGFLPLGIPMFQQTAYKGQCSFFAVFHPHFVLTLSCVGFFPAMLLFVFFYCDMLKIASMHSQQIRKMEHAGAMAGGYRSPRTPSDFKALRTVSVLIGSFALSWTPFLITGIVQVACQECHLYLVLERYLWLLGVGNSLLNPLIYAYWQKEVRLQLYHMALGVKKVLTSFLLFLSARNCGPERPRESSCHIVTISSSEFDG
- Procedure Summary: Agonist activity at human GPR119 expressed in CHO-K1 cells preincubated for 5 hrs followed by substrate addition measured after 2 hrs by fluorescence based assay
pEC50: −log10 of the molar value.
Would you mind telling me the reported pEC50 of each entry?

Quote pEC50 with test system Glucose-dependent insulinotropic receptor (Homo sapiens) for "CCN(c1ncnc2c(-c3ccc(S(C)(=O)=O)cc3)csc12)C1CCN(c2ccc(C(F)(F)F)cn2)CC1"
< 7.00

Quote pEC50 with test system Glucose-dependent insulinotropic receptor (Homo sapiens) for "CS(=O)(=O)c1ccc(-c2csc3c(N4CCCCC4)ncnc23)cc1"
< 7.00

Quote pEC50 with test system Glucose-dependent insulinotropic receptor (Homo sapiens) for "CS(=O)(=O)c1ccc(-c2csc3c(OC4CCNCC4)ncnc23)c(F)c1"
< 7.00
